Assignment: determine reported pKi for the given molecules.
Target: UniProtKB Q07817
Sequence (Q07817 whole entry): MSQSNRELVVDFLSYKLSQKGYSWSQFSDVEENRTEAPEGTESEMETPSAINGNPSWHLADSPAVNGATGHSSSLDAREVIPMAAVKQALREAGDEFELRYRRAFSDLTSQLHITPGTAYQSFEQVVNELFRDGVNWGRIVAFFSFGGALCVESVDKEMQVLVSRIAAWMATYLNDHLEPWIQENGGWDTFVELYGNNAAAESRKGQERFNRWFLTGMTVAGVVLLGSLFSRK
Answers are plain numbers, as −log10 of the molar value.

O=C(Nc1nc2ccccc2s1)c1cccc2c1CN(c1ccc(-c3cnn(Cc4ccccc4)c3)c(C(=O)O)n1)CC2; 7.92
O=C(Nc1nc2cccc(Cl)c2s1)c1cccc2c1CN(c1ccc(-c3cnn(Cc4ccccc4)c3)c(C(=O)O)n1)CC2; 6.74
O=C(Nc1nc2ccccc2s1)c1cccc2c1CN(c1ccc(-c3cnn(Cc4cc(F)cc(F)c4)c3)c(C(=O)O)n1)CC2; 7.85
O=C(Nc1nc2ccccc2s1)c1cccc2c1CN(c1ccc(-c3cnn(CC4CCNCC4)c3)c(C(=O)O)n1)CC2; 7.11

Continue with the next molecule.
Name the recorded pKi for O=C(Nc1nc2ccccc2s1)c1cccc2c1CN(c1ccc(-c3cnn(Cc4cc(F)ccc4F)c3)c(C(=O)O)n1)CC2 . 7.82
